Target: 5-hydroxytryptamine receptor 1A (Mus musculus)
Sequence (whole entry): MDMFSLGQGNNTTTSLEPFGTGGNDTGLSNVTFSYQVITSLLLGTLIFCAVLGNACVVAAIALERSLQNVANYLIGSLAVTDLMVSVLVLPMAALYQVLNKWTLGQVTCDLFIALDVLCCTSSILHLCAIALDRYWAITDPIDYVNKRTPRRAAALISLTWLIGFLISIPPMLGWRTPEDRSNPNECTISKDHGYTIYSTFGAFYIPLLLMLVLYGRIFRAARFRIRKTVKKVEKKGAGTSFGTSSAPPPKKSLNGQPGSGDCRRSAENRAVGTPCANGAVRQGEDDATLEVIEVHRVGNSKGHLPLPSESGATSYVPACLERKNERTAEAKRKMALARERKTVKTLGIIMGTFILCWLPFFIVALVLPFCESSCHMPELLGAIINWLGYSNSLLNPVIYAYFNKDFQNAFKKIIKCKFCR
Experiment: Antagonist activity at 5-hydroxytryptamine 1A receptor against (+)-8-OH-DPAT induced hypothermia in mice at 10 mg/kg after 60 min
Type: functional, organism-based
Set-up: dose 10 mg/kg
Change in body temperature values by entry
Measure: Change in body temperature (°C)

[
  {
    "Compound": "OC(CCN1CCN(c2cccc3c2OCCO3)CC1)c1csc2ccccc12 (stereo not given)",
    "Measure": "Change in body temperature",
    "Observed": -0.5
  },
  {
    "Compound": "OC(CCN1CCN(c2cccc3[nH]ccc23)CC1)c1csc2ccc(F)cc12 (stereo not given)",
    "Measure": "Change in body temperature",
    "Observed": -0.95
  },
  {
    "Compound": "OC(CCN1CCN(c2cccc3c2OCCO3)CC1)c1csc2ccc(F)cc12 (stereo not given)",
    "Measure": "Change in body temperature",
    "Observed": -0.84
  },
  {
    "Compound": "OC(CCN1CCN(c2cccc3[nH]ccc23)CC1)c1csc2ccccc12 (stereo not given)",
    "Measure": "Change in body temperature",
    "Observed": -0.8
  },
  {
    "Compound": "OC(CCN1CCN(c2cccc3cccnc23)CC1)c1csc2ccccc12 (stereo not given)",
    "Measure": "Change in body temperature",
    "Observed": -0.2
  }
]

---

Measured Change in body temperature accompanies every entry in the list below.
Biological target: UniProt:Q64264
Sequence (whole entry): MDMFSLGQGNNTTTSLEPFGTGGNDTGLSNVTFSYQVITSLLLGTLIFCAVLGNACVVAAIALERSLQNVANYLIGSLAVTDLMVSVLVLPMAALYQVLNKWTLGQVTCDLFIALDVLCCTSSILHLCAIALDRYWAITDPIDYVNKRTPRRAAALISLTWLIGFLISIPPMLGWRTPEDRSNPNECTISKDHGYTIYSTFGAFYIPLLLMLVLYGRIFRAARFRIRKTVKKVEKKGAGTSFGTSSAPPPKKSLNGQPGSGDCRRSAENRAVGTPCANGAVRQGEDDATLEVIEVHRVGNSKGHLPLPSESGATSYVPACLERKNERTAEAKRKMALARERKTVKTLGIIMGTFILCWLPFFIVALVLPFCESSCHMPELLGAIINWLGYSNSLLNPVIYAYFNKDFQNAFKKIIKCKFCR
Experiment: Antagonist activity at 5-hydroxytryptamine 1A receptor against (+)-8-OH-DPAT induced hypothermia in mice at 1 mg/kg after 30 min
Format: functional, organism-based
Design: dose 1 mg/kg

[
  {
    "Molecule": "OC(CCN1CCN(c2cccc3[nH]ccc23)CC1)c1csc2ccccc12 (stereo not given)",
    "Assayed System": "UniProt:Q64264",
    "Change in body temperature": "-1.59 °C"
  },
  {
    "Molecule": "OC(CCN1CCN(c2cccc3cccnc23)CC1)c1csc2ccccc12 (stereo not given)",
    "Assayed System": "UniProt:Q64264",
    "Change in body temperature": "-1.86 °C"
  },
  {
    "Molecule": "OC(CCN1CCN(c2cccc3[nH]ccc23)CC1)c1csc2ccc(F)cc12 (stereo not given)",
    "Assayed System": "UniProt:Q64264",
    "Change in body temperature": "-3.61 °C"
  },
  {
    "Molecule": "OC(CCN1CCN(c2cccc3c2OCCO3)CC1)c1csc2ccc(F)cc12 (stereo not given)",
    "Assayed System": "UniProt:Q64264",
    "Change in body temperature": "-1.04 °C"
  },
  {
    "Molecule": "OC(CCN1CCN(c2cccc3c2OCCO3)CC1)c1csc2ccccc12 (stereo not given)",
    "Assayed System": "UniProt:Q64264",
    "Change in body temperature": "-2.47 °C"
  }
]
